Target: Glucose transporter (Leishmania mexicana)
Experiment: ST_JUDE_LEISH: Cytotoxicity at 2uM final concentration against transgenic Leishmania Mexicana promastigotes LmGT2 that are glucose transport deficient and complemented with the L. Mexicana glucose transporter 2. Activity is measured by DNA content using SYBR green in vitro
Assay type: functional
Threshold check on inhibition: at or above 2% gives TRUE, strictly below gives FALSE.

[
  {
    "compound": "Oc1ccc(CCNc2nc(NCc3ccccc3-c3ccc(C(F)(F)F)cc3)nc(N3CCCNCC3)n2)cc1",
    "qualitativeLabel": "TRUE"
  },
  {
    "compound": "O=C(NC1CC1)c1ccc(N2CCCC(COc3ccc4c(c3)CCCC4)C2)nc1 (stereo not given)",
    "qualitativeLabel": "FALSE"
  },
  {
    "compound": "CCOC(=O)c1cc(C(=O)NCCCCN2CCC(c3cn(C)c4ccccc34)CC2)ccc1-c1ccc(C(F)(F)F)cc1",
    "qualitativeLabel": "FALSE"
  },
  {
    "compound": "COc1cccc2c(NN=Cc3cccc(F)c3)ccnc12",
    "qualitativeLabel": "FALSE"
  },
  {
    "compound": "CCn1c2ccccc2c2cc(Cc3cnc(N)nc3N)ccc21",
    "qualitativeLabel": "TRUE"
  }
]

###

Molecular target: Hexose transporter 1 (Plasmodium falciparum) (UniProt O97467)
Test: ST_JUDE_LEISH: Cytotoxicity at 2uM final concentration against transgenic Leishmania Mexicana promastigotes LmPfHT that are glucose transport deficient and complemented with the Plasmodium falciparum hexose transporter. Activity is measured by DNA content using SYBR green in vitro
Assay type: functional
resultType: inhibition

[
  {
    "compound": "CCNc1cc(C)nc(Nc2ccc(NC(=O)c3ccco3)cc2)n1",
    "resultType": "inhibition",
    "measValue": "3.53%"
  },
  {
    "compound": "Cc1ccccc1C1CCN(C2CCC(NC(=O)c3ccc(-c4ccccc4F)o3)CC2)CC1 (stereo unspecified)",
    "resultType": "inhibition",
    "measValue": "2.49%"
  },
  {
    "compound": "CC1CCCC(NCc2c(O)ccc3ccccc23)C1 (stereo unspecified)",
    "resultType": "inhibition",
    "measValue": "3.22%"
  },
  {
    "compound": "Cc1cccc2nc(-c3ccc(-c4ccc(CN5CCN(C6CCN(C)CC6)CC5)cc4)s3)[nH]c12",
    "resultType": "inhibition",
    "measValue": "1.2%"
  },
  {
    "compound": "CN(C)c1cccc2c1nc(-c1ccc3c(c1)CCO3)n2CCNCc1ccccc1",
    "resultType": "inhibition",
    "measValue": "8.56%"
  },
  {
    "compound": "CCn1cc(C=C2Oc3c(ccc(O)c3CN3CCCCC3)C2=O)c2ccccc21",
    "resultType": "inhibition",
    "measValue": "4.09%"
  }
]

###

Target: Hexose transporter 1 (Plasmodium falciparum) (UniProt O97467)
Assay: ST_JUDE_LEISH: Cytotoxicity at 2uM final concentration against transgenic Leishmania Mexicana promastigotes LmPfHT that are glucose transport deficient and complemented with the Plasmodium falciparum hexose transporter. Activity is measured by DNA content using SYBR green in vitro
Format: functional

[
  {
    "compound": "Clc1ccccc1C=NN=c1cc[nH]c2ccccc12",
    "inhibition [%]": 5.58
  },
  {
    "compound": "N#Cc1ccc2c(c1)CCN(CCC1CCC(NC(=O)/C=C/c3c[nH]c4ccc(F)cc34)CC1)CC2 (configuration not stated)",
    "inhibition [%]": 3.57
  },
  {
    "compound": "CC(C)(C)CNCC(C)(C)c1nc(-c2ccc(Cl)c(O)c2)c(-c2ccncc2)[nH]1",
    "inhibition [%]": 0
  },
  {
    "compound": "Cc1ccc(S(=O)(=O)N2CCN(C(=O)c3cc(-c4ccccc4)n[nH]3)CC2)cc1",
    "inhibition [%]": 2.9
  },
  {
    "compound": "CC(C)CNC(=O)c1ccnc(-c2ccc(CNCCCc3ccccc3)cc2)c1",
    "inhibition [%]": 3.19
  },
  {
    "compound": "CCN(CC)C(=O)C1CCCN(c2cc(C)nc(Nc3ccc(Cl)cc3)n2)C1 (configuration not stated)",
    "inhibition [%]": 1.03
  },
  {
    "compound": "COc1cc(C(=O)N2CCOC(CCN3CCC(Cc4ccc(F)cc4)CC3)(c3ccc(Cl)c(Cl)c3)C2)cc(OC)c1OC (configuration not stated)",
    "inhibition [%]": 7.29
  },
  {
    "compound": "OC(CNCCc1ccccc1)Cn1c2ccc(Cl)cc2c2cc(Cl)ccc21 (configuration not stated)",
    "inhibition [%]": -1.78
  },
  {
    "compound": "CC(Cc1ccc(NS(=O)(=O)c2ccc(CC(C)NCCc3cccc(Cl)c3)cc2)cc1)NCCc1cccc(Cl)c1 (configuration not stated)",
    "inhibition [%]": 9.69
  },
  {
    "compound": "Cc1ccc(NC(=S)N2CCCN(CCCCCNC(=O)/C=C/c3ccc(Cl)c(Cl)c3)CC2)cc1Cl",
    "inhibition [%]": -1.02
  },
  {
    "compound": "CO/C(=C\\C=C\\c1cc2cc(Cl)c(Cl)cc2[nH]1)C(=O)NCCCNCCN(C)c1ccccc1",
    "inhibition [%]": 2.76
  },
  {
    "compound": "COc1ccc(Nc2nccc(N3CCC(NC(=O)Nc4cccc(OC)c4)C3)n2)cc1 (configuration not stated)",
    "inhibition [%]": 0.74
  },
  {
    "compound": "CCNc1cc(C(=O)N[C@@H](Cc2ccccc2Cl)[C@H](O)CNC(C)CCCC(C)C)cc(N2CCCCS2(=O)=O)c1 (some centres not stated)",
    "inhibition [%]": 0.93
  },
  {
    "compound": "COc1ccc2ccccc2c1CNCCCCCCNCc1c(OC)ccc2ccccc12",
    "inhibition [%]": -0.97
  },
  {
    "compound": "O=C(Nc1ccccc1)N(Cc1ccccc1-c1cccc(CNC2CCCC2)c1)C1CCN(Cc2ccccc2)CC1",
    "inhibition [%]": 1.64
  },
  {
    "compound": "O=C(NCCCCN1CCC(c2ccc(-c3ccco3)cc2)CC1)c1ccc(NC(=O)c2ccc(Cl)cc2)cc1",
    "inhibition [%]": 2.49
  },
  {
    "compound": "O=C(c1ccc(-c2ccc(-c3nc4cc(C(F)(F)F)ccc4[nH]3)s2)cc1)N1CCN(CCc2ccccc2)CC1",
    "inhibition [%]": 3.93
  },
  {
    "compound": "Cc1cc(O)c(-c2ccc(S(=O)(=O)c3ccc(Cl)cc3)cc2)c(C)n1",
    "inhibition [%]": 0.81
  },
  {
    "compound": "O=C(Nc1ccc(-c2cccc(-c3nc4cc(C(F)(F)F)ccc4[nH]3)c2)cc1)c1cccnc1",
    "inhibition [%]": 0.06
  },
  {
    "compound": "CO/C(=C\\C=C\\c1cc2cc(Cl)c(Cl)cc2[nH]1)C(=O)NC1CC(C)N(C)C(C)C1 (configuration not stated)",
    "inhibition [%]": -0.97
  },
  {
    "compound": "C=CCOc1ccc(CNC2CCN(Cc3ccccc3)CC2)cc1Br",
    "inhibition [%]": 4.16
  },
  {
    "compound": "CC(Cc1ccc(C(=O)Nc2ccc(CC(C)NCCc3cccc(Cl)c3)cc2)cc1)NCCc1ccc(C(F)(F)F)cc1 (configuration not stated)",
    "inhibition [%]": 37.1
  },
  {
    "compound": "Cc1cccc2nc(-c3ccc(-c4cccc(CNCC5CCCO5)c4)s3)[nH]c12 (configuration not stated)",
    "inhibition [%]": 11.4
  },
  {
    "compound": "CCNc1cc(C(=O)N[C@@H](Cc2ccc(Cl)cc2)[C@H](O)CNC2CCCCC2)cc(N2CCCCS2(=O)=O)c1",
    "inhibition [%]": 1.36
  },
  {
    "compound": "Clc1cc(Cl)c2cc(CN[C@H]3CCC[C@@H]3CNc3nc4ccccc4[nH]3)[nH]c2c1",
    "inhibition [%]": 1.94
  },
  {
    "compound": "CC(C)N(Cc1cnc2nc(N)nc(N)c2n1)c1ccc(Cl)c(Cl)c1",
    "inhibition [%]": 1.12
  },
  {
    "compound": "COc1ccccc1Nc1nc(C)cc(NCc2ccc(-n3ccnc3)cc2)n1",
    "inhibition [%]": 7.52
  },
  {
    "compound": "CS(=O)(=O)c1ccc(CNCc2ccc(-c3ccc(-c4nc5cc(C(F)(F)F)ccc5[nH]4)cc3)cc2)cc1",
    "inhibition [%]": 1.96
  },
  {
    "compound": "COC(=O)c1cccc(CNCc2cccc(-c3cccc(-c4nc5cc(C(F)(F)F)ccc5[nH]4)c3)c2)c1",
    "inhibition [%]": -2.35
  },
  {
    "compound": "Cc1cccc(-c2nc3[nH]c(=O)cc(NC(=O)C(C)C)n3n2)c1",
    "inhibition [%]": -2.49
  },
  {
    "compound": "c1ccc(C(c2ccccc2)N2CCN(C(c3cccnc3)c3nnnn3C3CCCC3)CC2)cc1 (configuration not stated)",
    "inhibition [%]": -0.82
  },
  {
    "compound": "COc1ccc(C(=O)C2CC2CN(C)CC(O)c2cc(C)c(OC)cc2C)cc1 (configuration not stated)",
    "inhibition [%]": 7.67
  },
  {
    "compound": "Fc1ccc2c(NN=Cc3ccccc3)ccnc2c1",
    "inhibition [%]": 1.07
  },
  {
    "compound": "CC(NC(C)c1cccc(Cl)c1)C(=O)Nc1cc(C(F)(F)F)ccc1N1CCOCC1 (configuration not stated)",
    "inhibition [%]": 0.48
  },
  {
    "compound": "COc1ccc(CCNCCCCNCCc2ccc(OC)c3ccccc23)c2ccccc12",
    "inhibition [%]": 55.5
  },
  {
    "compound": "CC(=O)Nc1ccc(CNC2Cc3ccc(-c4ccc(Cl)c(Cl)c4)cc3C2)cc1 (configuration not stated)",
    "inhibition [%]": -1.57
  },
  {
    "compound": "CCn1ccc2c(N3CCCCS3(=O)=O)cc(C(=O)N[C@@H](Cc3ccccc3)[C@H](O)CNC3CCCCC3)cc21",
    "inhibition [%]": 5.66
  }
]
